# Tested on: Danio rerio larvae (5 dpf)
# assay_protocol: difference in habituation to acoustic stimuli vs DMSO (percentage points); higher = more habituation than DMSO
# condition_label: 10 µM; exposure time 6 h
Structures can show the parent of a compound that is named as a salt.
Classes based on difference in habituation to acoustic stimuli: c1 = under -5, c2 = from -5 up to 0.6, c3 = 0.6 and over

| compound | class_name |
| --- | --- |
| Cc1ccccc1C(=O)Nc1ccc(C(=O)N2CCCC(O)c3cc(Cl)ccc32)c(C)c1 (stereo not given) | c2 |
| COc1ccc(CC(C)(C)NC[C@H](O)c2cc(O)cc3c2OCC(=O)N3)cc1 | c1 |
| CCc1nc(N)nc(N)c1-c1ccc(Cl)cc1 | c2 |
| C=CC(=O)Nc1cc(Nc2nccc(-c3cn(C)c4ccccc34)n2)c(OC)cc1N(C)CCN(C)C | c1 |
| CCCCC[C@H](O)/C=C/[C@@H]1[C@H]2C/C(=C/CCCC(=O)O)O[C@H]2C[C@H]1O [Prostaglandin I2 (sodium salt)] | c3 |
| O=C(O)CCc1nc(-c2ccccc2)c(-c2ccccc2)o1 | c2 |
| CC(=O)OC[C@H]1O[C@@H]([S-])[C@H](OC(C)=O)[C@@H](OC(C)=O)[C@@H]1OC(C)=O.CCP(CC)CC.[Au+] | c3 |
| CCOC(=O)[C@@](C)(N)Cc1ccc(O)c(O)c1 [Methyldopate] | c2 |
| Cc1nc2c([nH]1)-c1ccccc1N(C(=O)c1ccc(NC(=O)c3ccccc3-c3ccccc3)cc1)CC2 [Conivaptan (hydrochloride)] | c3 |
| NCCCC(N)(C(=O)O)C(F)F (racemic) [DL-α-Difluoromethylornithine (hydrochloride hydrate)] | c3 |
| O=c1[nH]c2ccccc2n1CCN1CCN(c2cccc(C(F)(F)F)c2)CC1 | c2 |
